Tested on: CASOB (Sicklepod)
Assay: Postemergence herbicidal evaluation
Assay type: in vivo, Cassia obtusifolia
Conditions: postemergence, rate 0.0313 kg/ha
Experimental: In the tests, seedling plants are grown in jiffy flats for about two weeks. The test compounds are dispersed in 50/50 acetone/water mixtures containing 0.5% TWEEN®20, a polyoxyethylene sorbitan monolaurate surfactant of Atlas Chemical Industries, in sufficient quantities to provide the equivalent of about 0.0156 kg to 0.500 kg per hectare of active compound when applied to the plants through a spray nozzle operating at 40 psi for a predetermined time. […]
Hi there, I'd appreciate the recorded Herbicidal rating CASOB for every entry that follows.

Query string: Which value of Herbicidal rating CASOB has been reported for CCOC(=O)CN1C(=O)C(C(=O)OC(C)(C)C)SC1=Nc1cc(-n2c(=O)cc(C(F)(F)F)n(C)c2=O)c(F)cc1Cl (stereo not shown) [Compound 167] in the records?
Result string: 2.0

Query string: Which value of Herbicidal rating CASOB has been reported for C=C1SC(=Nc2cc(-n3c(=O)cc(C(F)(F)F)n(C)c3=O)c(F)cc2Cl)N(CC(=O)OCC)C1=O [Compound 154] in the records?
Result string: 0.0

Query string: Which value of Herbicidal rating CASOB has been reported for C=CCN1C(=O)C(CC(=O)NS(=O)(=O)CC)SC1=Nc1cc(-n2c(=O)cc(C(F)(F)F)n(C)c2=O)c(F)cc1Cl (stereo not shown) [Compound 104] in the records?
Result string: 0.0

Query string: Which value of Herbicidal rating CASOB has been reported for Cn1c(C(F)(F)F)cc(=O)n(-c2cc(N=C3SCC(=O)N3CC(=O)OC3CCCC3)c(Cl)cc2F)c1=O [Compound 120] in the records?
Result string: 5.0

* * *

tested on: ECHCG (Barnyardgrass); experiment: Preemergence herbicidal evaluation; type: in vivo, Echinochloa crus-galli; conditions: rate 0.0625 kg/ha; rated 4-5 weeks after treatment
Hi there, I'd appreciate the recorded Preemergence herbicidal rating ECHCG for every entry that follows.
Answer using only a numeral; do not append any unit.

Query string: Which value of Preemergence herbicidal rating ECHCG has been reported for CCOC(=O)CN1C(=O)C(C(=O)OC)SC1=Nc1cc(-n2c(=O)cc(C(F)(F)F)n(C)c2=O)c(F)cc1Cl (stereo not shown) [Compound 128] in the records?
Result string: 0.0

Query string: Which value of Preemergence herbicidal rating ECHCG has been reported for COC(=O)CCCN1C(=O)CSC1=Nc1cc(-n2c(=O)cc(C(F)(F)F)n(C)c2=O)c(F)cc1Cl [Compound 29] in the records?
Result string: 0.0

Query string: Which value of Preemergence herbicidal rating ECHCG has been reported for CC(C)COC(=O)CN1C(=O)CSC1=Nc1cc(-n2c(=O)cc(C(F)(F)F)n(C)c2=O)c(F)cc1Cl [Compound 121] in the records?
Result string: 4.0

Query string: Which value of Preemergence herbicidal rating ECHCG has been reported for Cn1c(C(F)(F)F)cc(=O)n(-c2cc(N=C3SCC(=O)N3CC(=O)OC(C)(C)C)c(Cl)cc2F)c1=O [Compound 43] in the records?
Result string: 0.0

Query string: Which value of Preemergence herbicidal rating ECHCG has been reported for Cn1c(C(F)(F)F)cc(=O)n(-c2cc(N=C3SCC(=O)N3CC(=O)OCC3CCCCC3)c(Cl)cc2F)c1=O [Compound 123] in the records?
Result string: 0.0

Query string: Which value of Preemergence herbicidal rating ECHCG has been reported for CC(C)OC(=O)CN1C(=O)CSC1=Nc1cc(-n2c(=O)cc(C(F)(F)F)n(C)c2=O)c(F)cc1Cl [Compound 110] in the records?
Result string: 0.5

Query string: Which value of Preemergence herbicidal rating ECHCG has been reported for CCOC(=O)CN1C(=O)C(Cc2ccccc2OCC(=O)O)S/C1=N/c1cc(-n2c(=O)cc(C(F)(F)F)n(C)c2=O)c(F)cc1Cl (stereo not shown) [Compound 113] in the records?
Result string: 0.0

Query string: Which value of Preemergence herbicidal rating ECHCG has been reported for C[C@@H](C(=O)OC(C)(C)C)N1C(=O)CSC1=Nc1cc(-n2c(=O)cc(C(F)(F)F)n(C)c2=O)c(F)cc1Cl [Compound 75] in the records?
Result string: 0.0

Query string: Which value of Preemergence herbicidal rating ECHCG has been reported for C[C@@H](C(=O)O)N1C(=O)CS/C1=N/c1cc(-n2c(=O)cc(C(F)(F)F)n(C)c2=O)c(F)cc1Cl [Compound 51] in the records?
Result string: 1.0

Query string: Which value of Preemergence herbicidal rating ECHCG has been reported for CCOC(=O)CN1C(=O)C(CCO)S/C1=N/c1cc(-n2c(=O)cc(C(F)(F)F)n(C)c2=O)c(F)cc1Cl (stereo not shown) [Compound 49] in the records?
Result string: 0.0

* * *

test system: SAGPY (Arrowhead (Pygmaea)); experiment: Postemergence weed control under flooded paddy conditions; type: in vivo, Sagittaria pygmaea; conditions: rate 0.1250 kg/ha, postemergence weeds, 3-4 weeks after treatment
Hi there, I'd appreciate the recorded Herbicidal rating SAGPY for every entry that follows.
Answer using only a numeral; do not append any unit.

Query string: Which value of Herbicidal rating SAGPY has been reported for CCOC(=O)CN1C(=O)C(CC(=O)OC(C)C)SC1=Nc1cc(-n2c(=O)cc(C(F)(F)F)n(C)c2=O)c(F)cc1Cl (centres unmarked) in the records?
Result string: 0.0

Query string: Which value of Herbicidal rating SAGPY has been reported for CCC1SC(=Nc2cc(N3C(=O)C4=C(CCCC4)C3=O)c(F)cc2Cl)N(C)C1=O (centres unmarked) in the records?
Result string: 0.0

Query string: Which value of Herbicidal rating SAGPY has been reported for CCOC(=O)CN1C(=O)C(CC(=O)O)S/C1=N/c1cc(-n2c(=O)cc(C(F)(F)F)n(C)c2=O)c(F)cc1Cl (centres unmarked) in the records?
Result string: 0.0

Query string: Which value of Herbicidal rating SAGPY has been reported for CCOC(=O)CN1C(=O)CS(=O)(=O)C1=Nc1cc(-n2c(=O)cc(C(F)(F)F)n(C)c2=O)c(F)cc1Cl in the records?
Result string: 0.0

Query string: Which value of Herbicidal rating SAGPY has been reported for CCOC(=O)CN1C(=O)C(Cc2ccccc2OC)SC1=Nc1cc(-n2c(=O)cc(C(F)(F)F)n(C)c2=O)c(F)cc1Cl (centres unmarked) in the records?
Result string: 0.0

Query string: Which value of Herbicidal rating SAGPY has been reported for CCOC(=O)CN1C(=O)CN(C)C1=Nc1cc(-n2c(=O)cc(C(F)(F)F)n(C)c2=O)c(F)cc1Cl in the records?
Result string: 5.0

Query string: Which value of Herbicidal rating SAGPY has been reported for COC(=O)CCCN1C(=O)CSC1=Nc1cc(-n2c(=O)cc(C(F)(F)F)n(C)c2=O)c(F)cc1Cl in the records?
Result string: 0.0

Query string: Which value of Herbicidal rating SAGPY has been reported for Cn1c(C(F)(F)F)cc(=O)n(-c2cc(N=C3SCC(=O)N3CC(=O)OC(C)(C)C)c(Cl)cc2F)c1=O in the records?
Result string: 7.0

* * *

tested on: ECHORC (Watergrass (Calif.)); test: Preemergence weed control under flooded paddy conditions; format: in vivo, Echinochloa oryzoides; conditions: 0.0313 kg/ha, rated 3-4 weeks after treatment
Hi there, I'd appreciate the recorded Herbicidal rating ECHORC for every entry that follows.
Answer using only a numeral; do not append any unit.

Query string: Which value of Herbicidal rating ECHORC has been reported for CCOC(=O)CN1C(=O)C(Cc2ccccc2OC)SC1=Nc1cc(-n2c(=O)cc(C(F)(F)F)n(C)c2=O)c(F)cc1Cl (stereo not drawn) [Compound 37] in the records?
Result string: 4.0

Query string: Which value of Herbicidal rating ECHORC has been reported for CCC1SC(=Nc2cc(N3C(=O)C4=C(CCCC4)C3=O)c(F)cc2Cl)N(C)C1=O (stereo not drawn) [Compound 6] in the records?
Result string: 0.0

Query string: Which value of Herbicidal rating ECHORC has been reported for CCOC(=O)CN1C(=O)C(CC(=O)OC(C)C)SC1=Nc1cc(-n2c(=O)cc(C(F)(F)F)n(C)c2=O)c(F)cc1Cl (stereo not drawn) [Compound 55] in the records?
Result string: 7.0

Query string: Which value of Herbicidal rating ECHORC has been reported for Cn1c(C(F)(F)F)cc(=O)n(-c2cc(N=C3NC(=O)CS3)c(Cl)cc2F)c1=O [Compound 39] in the records?
Result string: 0.0

Query string: Which value of Herbicidal rating ECHORC has been reported for CCOC(=O)/C=C1/S/C(=N/c2cc(-n3c(=O)cc(C(F)(F)F)n(C)c3=O)c(F)cc2Cl)N(CC(=O)OCC)C1=O [Compound 14] in the records?
Result string: 1.5

Query string: Which value of Herbicidal rating ECHORC has been reported for CN1C(=O)CS/C1=N/c1cc(-n2c(=O)cc(C(F)(F)F)n(C)c2=O)c(F)cc1Cl [Compound 7] in the records?
Result string: 8.0
